Each recorded value in this set is attributed to ChEMBL document CHEMBL4813995.

- METHOD_SUMMARY: Selective index, ratio of IC50 for human NHDF cells to EC50 for Trypanosoma brucei gambiense
- Format: toxicity
- STATED_CONDITIONS: read-out: Ratio IC50/EC50
ENDPOINT_NAME: selectivity ratio

## Task Fill in the blank: the reported selectivity ratio of Nc1ncnc2c1c(Br)cn2[C@@H]1O[C@H](CO)[C@@H](F)[C@H]1O is ____.
## Result > 270

## Task Fill in the blank: the reported selectivity ratio of Nc1ncnc2c1c(I)cn2[C@@H]1O[C@H](CO)[C@@H](F)[C@H]1O is ____.
## Result > 455

## Task Fill in the blank: the reported selectivity ratio of Nc1ncnc2c1c(-c1ccc(Cl)cc1)cn2[C@@H]1O[C@H](CO)[C@@H](F)[C@H]1O is ____.
## Result > 10
